Test system: HCI-024 (organoid from a breast cancer xenograft)
Assay: CTG-3D luminescence at 96 h relative to day-0 seeding control (ratio to day 0); higher = more growth / less cytotoxicity; PDxO 3D drug screen, 96 h, CTG-3D normalised to day-0 seeding control.
Settings: 0.1 µM; days in culture: 163
Assay readout: CTG-3D luminescence at 96 h
Lab note: jot down the number only; don't add units.

Worked cases, answers included:
{"Compound": "CN(Cc1cnc2nc(N)nc(N)c2n1)c1ccc(C(=O)N[C@@H](CCC(=O)O)C(=O)O)cc1 [methotrexate]", "CTG-3D luminescence at 96 h": 2.4}
{"Compound": "NC(=O)Nc1cc(-c2cccc(F)c2)sc1C(=O)N[C@H]1CCCNC1 [AZD7762]", "CTG-3D luminescence at 96 h": 1.27}
{"Compound": "CC(C)(C(=O)NCC(F)(F)C(F)(F)F)C(=O)N[C@@H]1C(=O)Nc2ccccc2-c2ccccc21", "CTG-3D luminescence at 96 h": 2.27}

Quickly give me recorded CTG-3D luminescence at 96 h for O=C(O)C1(C(=O)O)CCC1.[NH2-].[NH2-].[Pt+2] [carboplatin]
2.67

Quickly give me recorded CTG-3D luminescence at 96 h for CCc1c2c(nc3ccc(O)cc13)-c1cc3c(c(=O)n1C2)COC(=O)[C@]3(O)CC [SN-38]
0.824

Quickly give me recorded CTG-3D luminescence at 96 h for C=CCn1c(=O)c2cnc(Nc3ccc(N4CCN(C)CC4)cc3)nc2n1-c1cccc(C(C)(C)O)n1 [adavosertib]
2.44
